- TARGET SYSTEM: APOL1
- APPLIED CONDITIONS: ASO, A431, 0.25 µM
After the bases stand the sugars from the 5' end (letter, count) and the backbone: PS all phosphorothioate, else s phosphorothioate and o phosphodiester by linkage. Methylation of C is not given here. e = 2'-O-(2-methoxyethyl) (MOE); k = constrained ethyl (cEt); d = 2'-deoxy (DNA)
Class yes (1): target mRNA inhibition at least 80%. Class no (0): target mRNA inhibition below 80%.

SEQ STRING | TARGET SYSTEM | GROUP
GGTTCAAAAGCAGCAT (sugars k2 d4 e3 k2 d5, PS) | APOL1 | yes (1)
CAGCATTGAGTACAAC (sugars k3 d10 k3, PS) | APOL1 | no (0)
GTTATGAAATTATTGG (sugars kekddddeekkddddd, PS) | APOL1 | no (0)
GAATGAGCAGGTCAGA (sugars k4 d9 k3, PS) | APOL1 | no (0)
AGTATTGCCAGCTAAG (sugars k4 d9 k3, PS) | APOL1 | yes (1)
CTTATGCTTACTCCAC (sugars k4 d9 k3, PS) | APOL1 | no (0)
ACGCAATGCTGACTTG (sugars kkddddekekeddddd, PS) | APOL1 | no (0)
GTAAGTGCAACCAATC (sugars k4 d9 k3, PS) | APOL1 | yes (1)
AGGTTGTCCAGAGCTT (sugars k4 d9 k3, PS) | APOL1 | no (0)
GGTAAGAGCGATGGGA (sugars k3 d10 k3, PS) | APOL1 | yes (1)
ATTTCTTGATGTGGTG (sugars k4 d9 k3, PS) | APOL1 | yes (1)
